FYI, the data here is from ChEMBL document CHEMBL5236655.

Reported fold change (FC) values are given for each entry in this list.
# target-or-test-system: Interferon-induced, double-stranded RNA-activated protein kinase (Homo sapiens) (UniProt P19525)
# Sequence (P19525 whole entry): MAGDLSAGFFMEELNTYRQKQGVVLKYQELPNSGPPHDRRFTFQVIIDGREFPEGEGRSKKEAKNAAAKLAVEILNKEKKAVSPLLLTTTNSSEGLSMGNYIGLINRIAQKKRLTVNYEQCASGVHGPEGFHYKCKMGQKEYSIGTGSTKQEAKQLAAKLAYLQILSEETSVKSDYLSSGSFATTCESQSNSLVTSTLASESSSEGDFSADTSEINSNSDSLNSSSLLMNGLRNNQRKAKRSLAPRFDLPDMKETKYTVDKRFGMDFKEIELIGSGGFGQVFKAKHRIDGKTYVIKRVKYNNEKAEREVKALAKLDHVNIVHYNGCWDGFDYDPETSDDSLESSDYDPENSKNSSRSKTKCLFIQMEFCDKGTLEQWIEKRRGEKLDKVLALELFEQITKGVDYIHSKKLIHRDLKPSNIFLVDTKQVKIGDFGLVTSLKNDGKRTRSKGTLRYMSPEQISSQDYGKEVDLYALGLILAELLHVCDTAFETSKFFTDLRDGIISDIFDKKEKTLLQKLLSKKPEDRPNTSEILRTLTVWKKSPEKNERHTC
# measurement-notes: Induction of eIF2alpha phosphorylation (unknown origin) assessed as fold increase in ATF-4 stimulation at 80 uM by dual luciferase reporter assay
# condition-parameters: filed as activator

See these solved cases before continuing.
compound=CC(C)(C)c1ccc(OCCN2CCCCC2)c(C2(c3cc(C(C)(C)C)ccc3OCCN3CCCCC3)C(=O)Nc3ccccc32)c1 reported_measurement=5.91
compound="CC(C)(C)c1ccc(O)c(C2(c3cc(C(C)(C)C)ccc3OCCN3CCOCC3)C(=O)N(CCN3CCOCC3)c3ccccc32)c1 (stereo not given)" reported_measurement=31.9

Q: Find the recorded fold change (FC) belonging to COCCOc1ccc(C(C)(C)C)cc1C1(c2cc(C(C)(C)C)ccc2OCCOC)C(=O)Nc2ccccc21 and report it.
A: 1.58

Q: Another compound to check: CC(=O)OCCOc1ccc(C(C)(C)C)cc1C1(c2cc(C(C)(C)C)ccc2OCCOC(C)=O)C(=O)Nc2ccccc21
A: 2.07

Q: Another compound to check: CC(C)(C)c1ccc(O)c(C2(c3cc(C(C)(C)C)ccc3OCCBr)C(=O)N(CCBr)c3ccccc32)c1 (stereo not given)
A: 1.99

* * *

# measurement-notes: Antiproliferative activity against human CRL-2351 cells incubated for 5 days by SRB assay
# Format: functional, cell-based
# condition-parameters: CRL-2351, 120 h
Doc: threshold 2000 nM (exclusive). Items with IC50 beneath it return 1 (yes); others return 0 (no).

compound=CC(C)(C)c1ccc(OCCN2CCCC2)c(C2(c3cc(C(C)(C)C)ccc3OCCN3CCCC3)C(=O)Nc3ccccc32)c1 class_name="1 (yes)"
compound="CC(C)(C)c1ccc(O)c(C2(c3cc(C(C)(C)C)ccc3OCCBr)C(=O)Nc3ccccc32)c1 (configuration not stated)" class_name="0 (no)"
compound="CC(C)(C)c1ccc(O)c(C2(c3cc(C(C)(C)C)ccc3OCCN3CCOCC3)C(=O)N(CCN3CCOCC3)c3ccccc32)c1 (configuration not stated)" class_name="0 (no)"

Q: Strictly below 2000 nM: is that where IC50 of CC(C)(C)c1ccc(OCCN2CCCC2)c(C2(c3cc(C(C)(C)C)ccc3OCCN3CCCC3)C(=O)N(CCN3CCCC3)c3ccccc32)c1 sits?
A: 1 (yes)

Q: Another compound to check: CC(C)(C)c1ccc(OCCN2CCOCC2)c(C2(c3cc(C(C)(C)C)ccc3OCCN3CCOCC3)C(=O)Nc3ccccc32)c1
A: 1 (yes)

Q: Another compound to check: CC(C)(C)c1ccc(O)c(C2(c3cc(C(C)(C)C)ccc3OCCN3CCOCC3)C(=O)Nc3ccccc32)c1 (configuration not stated)
A: 1 (yes)

Q: Another compound to check: CN(C)CCOc1ccc(C(C)(C)C)cc1C1(c2cc(C(C)(C)C)ccc2OCCN(C)C)C(=O)N(CCN(C)C)c2ccccc21
A: 1 (yes)

* * *

# target-or-test-system: Interferon-induced, double-stranded RNA-activated protein kinase (Homo sapiens)
# measurement-notes: Induction of eIF2alpha phosphorylation (unknown origin) assessed as fold increase in ATF-4 stimulation at 20 uM by dual luciferase reporter assay
# condition-parameters: filed as activator
Reported fold change (FC) values are given for each entry in this list.
Respond using a number only.

compound=CN(C)CCN1C(=O)C(c2cc(C(C)(C)C)ccc2O)(c2cc(C(C)(C)C)ccc2O)c2ccccc21 reported_measurement=7.12

Here's the next entry for you.
Q: Enter reported fold change (FC) observed with Interferon-induced, double-stranded RNA-activated protein kinase (Homo sapiens) for CCN(CC)CCOc1ccc(C(C)(C)C)cc1C1(c2cc(C(C)(C)C)ccc2O)C(=O)Nc2ccccc21 (stereo not drawn)
A: 16.7

* * *

Reported fold change (FC) values are given for each entry in this list.
# target-or-test-system: Interferon-induced, double-stranded RNA-activated protein kinase (Homo sapiens) (UniProt P19525)
# measurement-notes: Induction of eIF2alpha phosphorylation (unknown origin) assessed as fold increase in ATF-4 stimulation at 40 uM by dual luciferase reporter assay
# condition-parameters: filed as activator
Respond using a number only.

compound=CC(C)(C)c1ccc(OCCN2CCOCC2)c(C2(c3cc(C(C)(C)C)ccc3OCCN3CCOCC3)C(=O)N(CCN3CCOCC3)c3ccccc32)c1 reported_measurement=10.8
compound=CC(C)(C)c1ccc(O)c(C2(c3cc(C(C)(C)C)ccc3O)C(=O)N(CCN3CCOCC3)c3ccccc32)c1 reported_measurement=4.3
compound="CC(=O)OCCOc1ccc(C(C)(C)C)cc1C1(c2cc(C(C)(C)C)ccc2O)C(=O)Nc2ccccc21 (configuration not stated)" reported_measurement=8.59
compound="COCOc1ccc(C(C)(C)C)cc1C1(c2cc(C(C)(C)C)ccc2O)C(=O)Nc2ccccc21 (configuration not stated)" reported_measurement=1.21

Q: Find the recorded fold change (FC) belonging to CC(C)(C)c1ccc(O)c(C2(c3cc(C(C)(C)C)ccc3OCCN3CCOCC3)C(=O)Nc3ccccc32)c1 (configuration not stated) and report it.
A: 5.69

Q: Another compound to check: CC(C)(C)c1ccc(O)c(C2(c3cc(C(C)(C)C)ccc3O)C(=O)N(CCBr)c3ccccc32)c1
A: 9.6

Q: Another compound to check: CC(C)(C)c1ccc(O)c(C2(c3cc(C(C)(C)C)ccc3OCCBr)C(=O)Nc3ccccc32)c1 (configuration not stated)
A: 12.9

* * *

Reported fold change (FC) values are given for each entry in this list.
# target-or-test-system: Interferon-induced, double-stranded RNA-activated protein kinase (Homo sapiens) (UniProt P19525)
# measurement-notes: Induction of eIF2alpha phosphorylation (unknown origin) assessed as fold increase in ATF-4 stimulation at 2.5 uM by dual luciferase reporter assay
# condition-parameters: filed as activator

structure_notation=CC(C)(C)c1ccc(OCCN2CCCC2)c(C2(c3cc(C(C)(C)C)ccc3OCCN3CCCC3)C(=O)N(CCN3CCCC3)c3ccccc32)c1 reported_measurement=12.1

Q: Find the recorded fold change (FC) belonging to CCN(CC)CCOc1ccc(C(C)(C)C)cc1C1(c2cc(C(C)(C)C)ccc2OCCN(CC)CC)C(=O)N(CCN(CC)CC)c2ccccc21 and report it.
A: 14.3

Q: Another molecule to check: CN(C)CCN1C(=O)C(c2cc(C(C)(C)C)ccc2OCCN2CCCC2)(c2cc(C(C)(C)C)ccc2OCCN2CCCC2)c2ccccc21
A: 11.8

Q: Another molecule to check: CN(C)CCOc1ccc(C(C)(C)C)cc1C1(c2cc(C(C)(C)C)ccc2OCCN(C)C)C(=O)N(CCN(C)C)c2ccccc21
A: 16.8

* * *

# measurement-notes: Antiproliferative activity against human CRL-2351 cells incubated for 5 days by SRB assay
# Format: functional, cell-based
# condition-parameters: CRL-2351, 120 h
Reported IC50 values are given for each entry in this list.
// note: answer is a bare numeric in nM

molecule="CCN(CC)CCOc1ccc(C(C)(C)C)cc1C1(c2cc(C(C)(C)C)ccc2O)C(=O)Nc2ccccc21 (centres undefined)" reported_measurement=600

Q: Find the recorded IC50 belonging to CC(C)(C)c1ccc(O)c(C2(c3cc(C(C)(C)C)ccc3OCCN3CCNCC3)C(=O)Nc3ccccc32)c1 (centres undefined) and report it.
A: 900

Q: Another molecule to check: CN1CCN(CCOc2ccc(C(C)(C)C)cc2C2(c3cc(C(C)(C)C)ccc3O)C(=O)Nc3ccccc32)CC1 (centres undefined)
A: 750

Q: Another molecule to check: CC(C)(C)c1ccc(OCCN2CCNCC2)c(C2(c3cc(C(C)(C)C)ccc3OCCN3CCNCC3)C(=O)Nc3ccccc32)c1
A: 800

* * *

# measurement-notes: Antiproliferative activity against human CRL-2351 cells incubated for 5 days by SRB assay
# Assay type: functional, cell-based
# condition-parameters: CRL-2351, 120 h
pIC50: −log10 of the molar value.
Give yes when the value for pIC50 is at least 6. Give no when it is less.

Past entries and their recorded results:
molecule=CN(C)CCOc1ccc(C(C)(C)C)cc1C1(c2cc(C(C)(C)C)ccc2OCCN(C)C)C(=O)Nc2ccccc21 class_name=no
molecule=CC(C)(C)c1ccc(O)c(C2(c3cc(C(C)(C)C)ccc3O)C(=O)Nc3ccccc32)c1 class_name=no
molecule="COCOc1ccc(C(C)(C)C)cc1C1(c2cc(C(C)(C)C)ccc2O)C(=O)Nc2ccccc21 (stereo unspecified)" class_name=no
molecule=CC(=O)OCCOc1ccc(C(C)(C)C)cc1C1(c2cc(C(C)(C)C)ccc2OCCOC(C)=O)C(=O)Nc2ccccc21 class_name=no

Q: Is the recorded value of pIC50 equal to or greater than 6 for this molecule? CN(C)CCOc1ccc(C(C)(C)C)cc1C1(c2cc(C(C)(C)C)ccc2O)C(=O)N(CCN(C)C)c2ccccc21 (stereo unspecified)
A: yes

Q: Another molecule to check: CC(C)(C)c1ccc(O)c(C2(c3cc(C(C)(C)C)ccc3OCCBr)C(=O)N(CCBr)c3ccccc32)c1 (stereo unspecified)
A: no

Q: Another molecule to check: CN1CCN(CCOc2ccc(C(C)(C)C)cc2C2(c3cc(C(C)(C)C)ccc3OCCN3CCN(C)CC3)C(=O)Nc3ccccc32)CC1
A: yes

Q: Another molecule to check: CC(C)(C)c1ccc(OCCN2CCOCC2)c(C2(c3cc(C(C)(C)C)ccc3OCCN3CCOCC3)C(=O)N(CCN3CCOCC3)c3ccccc32)c1
A: no

Q: Another molecule to check: CC(=O)OCCOc1ccc(C(C)(C)C)cc1C1(c2cc(C(C)(C)C)ccc2O)C(=O)Nc2ccccc21 (stereo unspecified)
A: no

Q: Another molecule to check: CN(C)CCOc1ccc(C(C)(C)C)cc1C1(c2cc(C(C)(C)C)ccc2O)C(=O)Nc2ccccc21 (stereo unspecified)
A: no

Q: Another molecule to check: CCN(CC)CCOc1ccc(C(C)(C)C)cc1C1(c2cc(C(C)(C)C)ccc2OCCN(CC)CC)C(=O)N(CCN(CC)CC)c2ccccc21
A: yes

Q: Another molecule to check: CC(C)(C)c1ccc(O)c(C2(c3cc(C(C)(C)C)ccc3OCCO)C(=O)Nc3ccccc32)c1 (stereo unspecified)
A: no

Q: Another molecule to check: CC(C)(C)c1ccc(O)c(C2(c3cc(C(C)(C)C)ccc3OCCN3CCCC3)C(=O)N(CCN3CCCC3)c3ccccc32)c1 (stereo unspecified)
A: no

Q: Another molecule to check: CN(C)CCN1C(=O)C(c2cc(C(C)(C)C)ccc2OCCN2CCCC2)(c2cc(C(C)(C)C)ccc2OCCN2CCCC2)c2ccccc21
A: yes

Q: Another molecule to check: CC(C)(C)c1ccc(O)c(C2(c3cc(C(C)(C)C)ccc3O)C(=O)N(CCN3CCOCC3)c3ccccc32)c1
A: no
